# System: HepaRG
# PROTOCOL_TEXT: LDH release cytotoxicity, % of total lysis control; higher = more cytotoxic
# EXPERIMENTAL_PARAMETERS: 0.03162 µM; 48 h
Reported LDH release cytotoxicity by item:
Numeric only. Scale: %

A selection of reference data follows.
CCCCNC(=O)n1c(NC(=O)OC)nc2ccccc21: -1.36
Cc1cc(C)c(O)c(C)c1: -0.941
Nc1ccc([N+](=O)[O-])cc1: -1.77

Req: Entry under review: C=CCCCCCCCCC(=O)O . Reported LDH release cytotoxicity?
Resp: 0.758

----------
# System: HepaRG
# PROTOCOL_TEXT: LDH release cytotoxicity, % of total lysis control; higher = more cytotoxic
# EXPERIMENTAL_PARAMETERS: 10 µM; 48 h
Reported LDH release cytotoxicity by item:
Numeric only. Scale: %

A selection of reference data follows.
C#CC1(O)CCC2C3CCC4=CC(=O)CCC4C3CCC21C (stereo not given): 0.906
Cc1c(COC(=O)C2C(C=C(Cl)C(F)(F)F)C2(C)C)cccc1-c1ccccc1 (stereo not given): -1.98
CC(C)(C)OOC(=O)c1ccccc1 [tert-Butyl perbenzoate]: -1.63

Req: Entry under review: CCCCCCCCCC[N+](C)(C)[O-] [N,N-Dimethyldecylamine oxide] . Reported LDH release cytotoxicity?
Resp: -2.07

Req: Entry under review: O=C1CCCO1 . Reported LDH release cytotoxicity?
Resp: 0.21

Req: Entry under review: CC(C)CCCCCCc1ccc(O)cc1 . Reported LDH release cytotoxicity?
Resp: -1.23

Req: Entry under review: c1ccc2c(c1)-c1cccc3c1c-2cc1ccccc13 . Reported LDH release cytotoxicity?
Resp: 1.06

Req: Entry under review: C=CCCCCCCCCC(=O)O . Reported LDH release cytotoxicity?
Resp: -0.534

Req: Entry under review: CCCCCc1ccc(N)cc1 . Reported LDH release cytotoxicity?
Resp: -0.634

Req: Entry under review: CCOc1cccc(-n2cc(C(=O)N3CCN(c4cc(C(=O)O)c5ccccc5c4)CC3)nc2-c2ccc(C)cc2)c1 . Reported LDH release cytotoxicity?
Resp: -0.211

Req: Entry under review: CCNC(=O)NC(=O)C(C#N)=NOC . Reported LDH release cytotoxicity?
Resp: -0.806

Req: Entry under review: C=CC(=O)NCNC(=O)C=C [N,N'-Methylenebisacrylamide] . Reported LDH release cytotoxicity?
Resp: -0.328

Req: Entry under review: COP(=S)(OC)Oc1ccc([N+](=O)[O-])c(C)c1 . Reported LDH release cytotoxicity?
Resp: -0.576

Req: Entry under review: O=C(NC1CN2CCC1CC2)c1ccc2c(c1)OCCO2 (stereo not given) . Reported LDH release cytotoxicity?
Resp: -1.38

Req: Entry under review: CNC(=O)ON=C(SC)C(=O)N(C)C . Reported LDH release cytotoxicity?
Resp: -1.06

Req: Entry under review: CC(=O)Nc1ccc(O)cc1 . Reported LDH release cytotoxicity?
Resp: -3.2

Req: Entry under review: S=C(S)NCCNC(=S)S . Reported LDH release cytotoxicity?
Resp: 75.5

Req: Entry under review: c1ccc2cc3ccccc3cc2c1 . Reported LDH release cytotoxicity?
Resp: -2.69

Req: Entry under review: CC(=O)[O][Hg][c]1ccccc1 [Phenylmercuric acetate] . Reported LDH release cytotoxicity?
Resp: 45.5

Req: Entry under review: CC(O)CO (stereo not given) . Reported LDH release cytotoxicity?
Resp: -1.06

Req: Entry under review: COC(=O)C(C)Oc1ccc(Oc2ccc(Cl)cc2Cl)cc1 (racemic) [Methyl (RS)-2-[4-(2,4-dichlorophenoxy)phenoxy]propionate] . Reported LDH release cytotoxicity?
Resp: -1.28
